TARGET: T1, HLA-G expressed on the cell surface (human, UniProt P17693 25-338)
T1 construct: whole, on cells; The cell line of each entry is named under assay or readout; also called HLA-G on JEG-3 cells; HLA-G on SCH cells
TEST SUMMARY: flow cytometry on JEG-3 and SCH cells naturally expressing HLA-G, anti-human IgG PE
OBSERVABLE: fold HLA-G binding activity against the positive control antibody

If you can, please state the reported fold HLA-G binding activity against the positive control antibody value of 2F1CDRH3#26 (antibody, human IgG1, kappa, V domains shown) VH: EVQLVESGGGLVQPGGSLRLSCAASGFTFSSYAMSWVRQAPGKGLEWVSRISGSGSYTYYADSVKGRFTISRDNSKNTLYLQMNSLRAEDTAVYYCAKEGASSYRGWMDVWGQGTLVTVSS VL: DIQMTQSPSSLSASVGDRVTITCRASQSISNYLNWYQQKPGKAPKLLIYATSRLQSGVPSRFSGSGSGTDFTLTISSLQPEDFATYYCQQSHSTPWTFGQGTKVEIKR . ≥ 3 fold
